Provide the reported IC50 of each item.
Experimental details: Inhibition of recombinant HIV integrase strand transfer activity
Set-up: species or system Human immunodeficiency virus
Numbers only, in nM.

Solved cases (3 shown):
Incoming: Give reported IC50 value for `CS(=O)(=O)Nc1ccc(-c2nc(-c3nnc(Cc4ccc(F)cc4)o3)c(O)c3ncccc23)cc1`
Outgoing: 3

Incoming: Provide one value: measured IC50 of `CN1CCN(c2nc(-c3nnc(Cc4ccc(F)cc4)o3)c(O)c3ncccc23)C1=O`
Outgoing: 15

Incoming: Fill in reported IC50 for this entry: `CC(C)NC(=O)c1ccc(-c2nc(-c3nnc(Cc4ccc(F)cc4)o3)c(O)c3ncccc23)cc1`
Outgoing: 4

Below are some compounds; for each one, tell me its IC50.
1. O=C(O)c1ccc(-c2nc(-c3nnc(Cc4ccc(F)cc4)o3)c(O)c3ncccc23)cc1
2. NC(=O)c1nc(-c2nnc(Cc3ccc(F)cc3)o2)c(O)c2ncccc12
3. Cc1ccccc1S(=O)(=O)Nc1nc(-c2nnc(Cc3ccc(F)cc3)o2)c(O)c2ncccc12
4. O=C(c1nc(-c2nnc(Cc3ccc(F)cc3)o2)c(O)c2ncccc12)N1CCOCC1
5. O=C1CCCCCN1c1nc(-c2nnc(Cc3ccc(F)cc3)o2)c(O)c2ncccc12
6. N#Cc1nc(-c2nnc(Cc3ccc(F)cc3)o2)c(O)c2ncccc12

Outgoing:
1: 2; 2: 100; 3: 42; 4: 130; 5: 25; 6: 240

For the 2 compounds below, give their IC50 values.
1. CN1CCN(c2nc(-c3nnc(Cc4ccc(F)cc4)o3)c(O)c3ncccc23)S1(=O)=O
2. Nc1cccc(-c2nc(-c3nnc(Cc4ccc(F)cc4)o3)c(O)c3ncccc23)c1

Outgoing:
1: 4; 2: 15

Provide the reported IC50 of each entry below, same order.
1. Oc1c(-c2nnc(Cc3ccc(F)cc3)o2)nc(-c2ccoc2)c2cccnc12
2. O=C(NCCO)c1nc(-c2nnc(Cc3ccc(F)cc3)o2)c(O)c2ncccc12
3. CC(C)NS(=O)(=O)c1ccccc1-c1nc(-c2nnc(Cc3ccc(F)cc3)o2)c(O)c2ncccc12
4. CN(C)C(=O)C(=O)N(C)c1nc(-c2nnc(Cc3ccc(F)cc3)o2)c(O)c2ncccc12

Outgoing:
23
130
12
85

Cited source: ChEMBL document CHEMBL1153288
